# method.summary: In vitro stability assay in liver microsome (HLM)
# Format: in vitro ADME, human
# cond: liver microsome 0.5 mg/mL, NADPH+MgCl2, PBS pH 7.4, 1 h
# Procedure: Liver microsome incubation samples were prepared by mixing a PBS buffer (pH 7.4), a liver microsome solution (0.5 mg/mL), a test compound, and an NADPH+MgCl2 solution, and incubated at […] and 300 rpm for 1 h. Zero-hour samples were prepared by mixing a PBS buffer (pH 7.4), a liver microsome solution (0.5 mg/mL), and a test compound. […]
Each record here notes measured HLM Remaining (T = 60 min).
measured.endpoint: HLM Remaining (T = 60 min) (%)

- compound: "Cc1cc(-c2nn3c(c2-n2ccn(-c4ccc5c(c4)N(C)C(=O)C54CC4)c2=O)[C@H](C)N(C(=O)c2cc4cc([C@H]5CCOC(C)(C)C5)ccc4n2[C@@]2(c4noc(=O)[nH]4)C[C@@H]2C)CC3)cc(C)c1F"
  result.number: 86.20
- compound: "[2H]C([2H])([2H])N1C(=O)C2(CC2)c2cc(-n3ccn(-c4c5c(nn4-c4cc(C)c(F)c(C)c4)CCN(C(=O)c4cc6cc([C@H]7CCOC(C)(C)C7)ccc6n4[C@@]4(c6noc(=O)[nH]6)C[C@@H]4C)[C@H]5C)c3=O)ccc21"
  result.number: 88.76
- compound: "Cc1cc(-n2nc3c(c2-n2ccn(-c4ccc5c(c4)C4(CC4)C(=O)N5C4CC4)c2=O)[C@H](C)N(C(=O)c2cc4cc([C@H]5CCOC(C)(C)C5)ccc4n2[C@@]2(c4noc(=O)[nH]4)C[C@@H]2C)CC3)cc(C)c1F"
  result.number: 80.83
- compound: "Cc1cc(-n2nc3c(c2-n2ccn(-c4ccc5c(c4)C4(CC4)C(=O)N5C)c2=O)[C@H](C)N(C(=O)c2cc4cc([C@H]5CCOC(C)(C)C5)ccc4n2C2(c4noc(=O)[nH]4)CC2)CC3)cc(C)c1F"
  result.number: 91.85
- compound: "Cc1cc(-n2nc3c(c2-n2ccn(-c4ccc5c(c4)N(C)C(=O)C54CC4)c2=O)[C@H](C)N(C(=O)c2cc4cc([C@H]5CCOC(C)(C)C5)ccc4n2C2(c4noc(=O)[nH]4)CC2)CC3)cc(C)c1F"
  result.number: 92.40
- compound: "Cc1cc(-n2nc3c(c2-n2ccn(-c4ccc5c(c4)N(C)C(=O)C54CC4)c2=O)[C@H](C)N(C(=O)c2cc4cc(C5CCOC(C)(C)C5)ccc4n2[C@@]2(c4noc(=O)[nH]4)C[C@@H]2C)CC3)cc(C)c1F (single isomer, unassigned)"
  result.number: 98.60
- compound: "C[C@H]1c2c(nn(-c3ccc(F)c(C4CC4)c3)c2-n2ccn(-c3ccc4c(c3)N(C)C(=O)C43CC3)c2=O)CCN1C(=O)c1cc2cc(C3CCOC(C)(C)C3)ccc2n1C1(c2noc(=O)[nH]2)CC1 (single isomer, unassigned)"
  result.number: 95.39
- compound: "[2H]C([2H])([2H])N1C(=O)C2(CC2)c2ccc(-n3ccn(-c4c5c(nn4-c4cc(C)c(F)c(C)c4)CCN(C(=O)c4cc6cc([C@H]7CCOC(C)(C)C7)ccc6n4[C@@]4(c6noc(=O)[nH]6)C[C@@H]4C)[C@H]5C)c3=O)cc21"
  result.number: 84.57
- compound: "C[C@H]1c2c(nn(-c3ccc(F)c(C4CC4)c3)c2-n2ccn(-c3ccc4c(c3)N(C)C(=O)C43CC3)c2=O)CCN1C(=O)c1cc2cc([C@H]3CCOC(C)(C)C3)ccc2n1[C@@]1(c2noc(=O)[nH]2)C[C@@H]1C"
  result.number: 89.14
- compound: "Cc1cc(-n2nc3c(c2-n2ccn(-c4ccc5c(c4F)N(C)C(=O)C54CC4)c2=O)[C@H](C)N(C(=O)c2cc4cc([C@H]5CCOC(C)(C)C5)ccc4n2[C@@]2(c4noc(=O)[nH]4)C[C@@H]2C)CC3)cc(C)c1F"
  result.number: 89.53

Each recorded value in this set is attributed to patent US20260098037A1.
